The values you see were collected from paper PMC2766550.

ASSAYED_TARGET: hNMB-receptor (Homo sapiens, UniProt P28336)
Sequence (P28336 whole entry): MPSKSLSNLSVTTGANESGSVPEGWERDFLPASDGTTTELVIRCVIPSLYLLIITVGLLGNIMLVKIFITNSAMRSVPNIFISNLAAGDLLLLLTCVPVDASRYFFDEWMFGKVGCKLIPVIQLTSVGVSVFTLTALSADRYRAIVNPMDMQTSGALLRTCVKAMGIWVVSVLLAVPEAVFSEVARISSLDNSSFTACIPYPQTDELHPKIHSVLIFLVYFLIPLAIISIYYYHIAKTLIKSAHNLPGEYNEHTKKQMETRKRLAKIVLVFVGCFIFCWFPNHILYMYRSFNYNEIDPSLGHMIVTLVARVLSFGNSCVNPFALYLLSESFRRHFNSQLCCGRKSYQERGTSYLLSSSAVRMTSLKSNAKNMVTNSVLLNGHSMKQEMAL
ASSAY_NOTES: Whole cell radioligand binding, hNMB-receptor transfected Balb 3T3 cells
CONDITION_SET: IC50 hNMB-R Balb-3T3, hNMB-receptor transfected Balb 3T3 cells; 125I-[D-Tyr0]NMB, 1 h, 22°C; mean ± S.E.
Square brackets hold non-standard residues; d marks the D form. Peptide text beside a SMILES is read from it. dPhe(F5) = N[C@H](Cc1c(F)c(F)c(F)c(F)c1F)C(=O)O; pGlu = O=C1CC[C@@H](C(=O)O)N1

MOLECULE	ASSAYED_TARGET	IC50
CC(C)C[C@H](NC(=O)[C@H](CC(C)C)NC(=O)[C@@H](Cc1ccccc1)NC(=O)CNC(=O)[C@@H](NC(=O)[C@H](C)NC(=O)[C@H](Cc1c[nH]c2ccccc12)NC(=O)[C@H](CCC(N)=O)NC(=O)[C@H](CC(N)=O)NC(=O)CNC(=O)[C@H](CC(C)C)NC(=O)[C@H](CCCNC(=N)N)NC(=O)[C@H](CCC(N)=O)NC(=O)[C@@H]1CCC(=O)N1)C(C)C)C(N)=O [Peptide 1, [D-Phe^12, Leu^14]Bn] ([pGlu]QRLGNQWAVG[dF]LL-NH2)	hNMB-receptor (Homo sapiens, UniProt P28336)	> 10 µM
COC(=O)[C@H](CC(C)C)NC(=O)[C@H](Cc1c[nH]cn1)NC(=O)CNC(=O)[C@@H](NC(=O)[C@H](C)NC(=O)[C@H](Cc1c[nH]c2ccccc12)NC(=O)[C@H](CCC(N)=O)NC(=O)[C@H](N)Cc1ccccc1)C(C)C [Peptide 17, [D-Phe^6]Bn-(6-13)Methyl ester (ME)]	hNMB-receptor (Homo sapiens, UniProt P28336)	> 10 µM
CCNC(=O)[C@H](CC(C)C)NC(=O)[C@H](Cc1c[nH]cn1)NC(=O)CNC(=O)[C@@H](NC(=O)[C@H](C)NC(=O)[C@H](Cc1c[nH]c2ccccc12)NC(=O)[C@H](CCC(N)=O)NC(=O)[C@H](N)Cc1ccccc1)C(C)C [Peptide 10, [D-Phe^6]Bn(6-13)Ethylamide]	hNMB-receptor (Homo sapiens, UniProt P28336)	> 10 µM
CSCC[C@H](NC(=O)[C@@H](Cc1c[nH]c2ccccc12)NC(=O)[C@@H](Cc1c[nH]c2ccccc12)NC(=O)[C@H](Cc1ccccc1)NC(=O)[C@@H](Cc1c[nH]c2ccccc12)NC(=O)[C@H](CCC(N)=O)NC(=O)[C@H](CCC(N)=O)NC(=O)[C@H]1CCCN1)C(N)=O [Peptide 4, [D-Pro^4, D-Trp^7,9,10]SP-(4-11)] (H-[dP]QQ[dW]F[dW][dW]M-NH2)	hNMB-receptor (Homo sapiens, UniProt P28336)	> 10 µM
COC(=O)[C@H](CC(C)C)NC(=O)[C@H](Cc1c[nH]cn1)NC(=O)[C@@H](C)NC(=O)[C@@H](NC(=O)[C@H](C)NC(=O)[C@H](Cc1c[nH]c2ccccc12)NC(=O)[C@H](CCC(N)=O)NC(=O)[C@H](N)Cc1c(F)c(F)c(F)c(F)c1F)C(C)C [Peptide 18] (H-[dPhe(F5)]QWAV[dA]HL-OMe)	hNMB-receptor (Homo sapiens, UniProt P28336)	> 10 µM
CC(C)C[C@H](NC(=O)[C@H](Cc1cnc[nH]1)NC(=O)CNC(=O)[C@@H](NC(=O)[C@H](C)NC(=O)[C@H](Cc1c[nH]c2ccccc12)NC(=O)[C@H](CCC(N)=O)NC(=O)[C@H](N)Cc1ccccc1)C(C)C)C(N)=O [Peptide 8, [D-Phe^6]Bn(6-13)NH2]	hNMB-receptor (Homo sapiens, UniProt P28336)	> 10 µM
